tested.on: T1, GFP-9S library array, motif 4 ND N98L;D124S (synthetic construct, N98L;D124S)
T1 chain: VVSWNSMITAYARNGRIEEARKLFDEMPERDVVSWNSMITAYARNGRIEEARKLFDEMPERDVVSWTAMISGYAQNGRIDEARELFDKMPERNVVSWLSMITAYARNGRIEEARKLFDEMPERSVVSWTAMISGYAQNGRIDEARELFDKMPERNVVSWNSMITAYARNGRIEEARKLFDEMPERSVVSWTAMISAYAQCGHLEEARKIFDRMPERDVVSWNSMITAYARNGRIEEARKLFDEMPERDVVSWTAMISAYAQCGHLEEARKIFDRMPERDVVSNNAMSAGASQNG
experiment: high-throughput RNA pulldown from lysate on Ni-NTA beads; HRP: 50 mM Tris pH 8, 150 mM NaCl, 1 mM beta-mercaptoethanol, 50 ug/ml BSA, 3 ug/ml yeast RNA, 0.5% heparin; ITC and FP: Tris pH 8, 200 mM KCl, 5% glycerol; MST: 50 mM Tris pH 8, 200 mM NaCl, 1 mM DTT, BSA, heparin, 0.05% Tween 20
test.conditions: tags: N-terminal His-eGFP; label: 5' Cy5
pKd for assorted binders
// pKd is dimensionless: -log10 of concentration (M)

> print(dat)
                           binder  recorded.value
1  AUUACACGUGA (ssRNA) [Cy5-rpoA]            6.86

What the record says about AUUAGACGUGA (ssRNA) [Cy5-rpoA-G] : pKd is 6.95
